Taken from patent US20110009482A1.

test details: Pharmacokinetics after oral administration to a human
measurement context: in vivo; single-dose oral administration of 30 mg to a human
reported metric: Cmax

>>> print(df.to_string())
                              line_notation      assay_result
0  CC[C@@H](Nc1c(Nc2cccc(C(=O)N(C)C)c2O)c(=O)c1=O)c1ccc(C)o1  122 to 147 ng/mL

* * *

test details: Pharmacokinetics after oral administration to a human
measurement context: in vivo; oral administration to a human; read-out: median Tmax
reported metric: Tmax

>>> df
                              line_notation  assay_result
0  CC[C@@H](Nc1c(Nc2cccc(C(=O)N(C)C)c2O)c(=O)c1=O)c1ccc(C)o1    0.5 to 2 h
